Listed here are molecules together with their documented activity (%) at 10 μM.
- target-system: human M1 receptor (hCHRM1) (Homo sapiens, UniProt P11229)
- Construct: expressed in transfected cells; host or cells: CHO-K1
- Sequence (P11229 1-460): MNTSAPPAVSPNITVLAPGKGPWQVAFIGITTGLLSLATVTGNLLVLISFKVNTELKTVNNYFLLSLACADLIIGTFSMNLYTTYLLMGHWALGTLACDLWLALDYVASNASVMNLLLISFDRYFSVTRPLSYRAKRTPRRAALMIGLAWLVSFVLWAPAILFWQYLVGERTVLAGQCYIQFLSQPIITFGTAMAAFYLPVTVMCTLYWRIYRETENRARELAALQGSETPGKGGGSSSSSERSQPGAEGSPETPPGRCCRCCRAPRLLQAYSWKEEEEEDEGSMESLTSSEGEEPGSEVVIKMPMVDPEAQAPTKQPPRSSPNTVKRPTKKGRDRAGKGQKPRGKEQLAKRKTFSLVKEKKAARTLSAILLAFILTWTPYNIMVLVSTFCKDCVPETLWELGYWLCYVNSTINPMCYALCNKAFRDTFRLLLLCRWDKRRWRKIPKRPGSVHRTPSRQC
- experiment-summary: Measurement of M1 receptor positive allosteric modulator (M1PAM) activity (calcium fluorescence, Fluo-4, FDSS)
- Type: cell-based
- test-context: 10 μM test compound; acetylcholine EC20 (final 0.8 nM) present; 100% = acetylcholine 1 μM, 0% = DMSO; CHO-K1 hCHRM1 cells
Kindly provide the numeric value in % only, without the unit symbol.

Cc1c(Cc2ccc(-c3cn(C)nn3)cc2)cc2c(=O)n([C@@H]3CCC[C@H]3O)cnc2c1C (single isomer, unassigned) ... 88
Cc1c(Cc2ccc(-n3cccn3)cc2)cc2c(=O)n([C@H]3COCC[C@@H]3O)nnc2c1C [Example 43] ... 100
Cc1c(Cc2ccc(-c3cn(C)nn3)cc2)cc2c(=O)n([C@H]3CCC[C@@H]3O)cnc2c1C (relative stereo) [Example 11] ... 101

Prompt line: Find the recorded activity (%) at 10 μM belonging to Cc1c(Cc2ccc(-c3cnn(C)c3)nc2)cc2c(=O)n([C@H]3CCC[C@@H]3O)cnc2c1C (single isomer, unassigned) [Example 50] and report it.
Response line: 102

Prompt line: Please give the result for Cc1c(Cc2ccc(-n3cccn3)cc2)cc2c(=O)n([C@H]3COCC[C@@H]3O)cnc2c1C (single isomer, unassigned) [Example 52] too.
Response line: 98

Prompt line: Could you do the same for `Cc1c(Cc2ccc(-n3cccn3)cc2)cc2c(=O)n([C@H]3COCC[C@@H]3O)nnc2c1F` , please?
Response line: 97

Prompt line: Entry `Cc1cc2nnn([C@H]3COCC[C@@H]3O)c(=O)c2cc1Cc1ccc(-c2ccn(C)n2)cc1` please
Response line: 98
